- study target: CK2A1 (Homo sapiens, UniProt P68400)
- Construct: purchased Eurofins
- Sequence (P68400 whole entry): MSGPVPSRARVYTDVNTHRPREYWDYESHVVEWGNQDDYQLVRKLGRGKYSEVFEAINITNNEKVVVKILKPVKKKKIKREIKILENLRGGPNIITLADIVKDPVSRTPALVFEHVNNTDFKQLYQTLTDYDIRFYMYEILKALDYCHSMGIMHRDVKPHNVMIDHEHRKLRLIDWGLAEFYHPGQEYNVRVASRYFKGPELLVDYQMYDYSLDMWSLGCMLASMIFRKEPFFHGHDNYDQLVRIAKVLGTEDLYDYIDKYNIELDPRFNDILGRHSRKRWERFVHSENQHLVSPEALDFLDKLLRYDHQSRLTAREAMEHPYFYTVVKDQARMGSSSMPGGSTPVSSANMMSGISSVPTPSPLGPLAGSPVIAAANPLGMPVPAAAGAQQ
- protocol details: Radiometric kinase assay (Eurofins), CK2A1
- Type: biochemical
- measurement setup: Table 5; read-out: CK2A1 RAD IC50
measurement kind: IC50

| compound | study target | recorded result |
| --- | --- | --- |
| COc1ccc2c(=O)cc(-c3ccc(O)c(OC)n3)oc2c1Br [Compound 1059A] | CK2A1 (Homo sapiens, UniProt P68400) | 185 nM |
| COc1ccc2c(=O)cc(-c3ccc(O)c(C4CC4)c3)oc2c1Br [Compound 1142A] | CK2A1 (Homo sapiens, UniProt P68400) | 2790 nM |
| O=c1cc(-c2ccc(O)c(C3CC3)c2)oc2c(Br)cccc12 [Compound 1141A] | CK2A1 (Homo sapiens, UniProt P68400) | > 5000 nM |
| COc1cc(-c2cc(=O)c3cc(Br)c(OC)cc3o2)ncc1O [Compound 1063B] | CK2A1 (Homo sapiens, UniProt P68400) | 203 nM |
| COc1cc(-c2cc(=O)c3cc(Br)ccc3o2)ncc1O [Compound 1065A] | CK2A1 (Homo sapiens, UniProt P68400) | 401 nM |

====

- study target: CK2A1 (Homo sapiens, UniProt P68400)
- Construct: purchased Eurofins
- protocol details: Radiometric kinase assay (Eurofins), CK2A1
- Assay type: biochemical
- measurement setup: Table 10; aurones; read-out: CK2A1 IC50
pIC50: −log10 of the molar value.
Parameter pIC50: see the listing below.
measurement kind: pIC50

| compound | qual | recorded result |
| --- | --- | --- |
| O=C1/C(=C/c2ccc(O)c(Br)c2)Oc2c(Br)cc(Br)cc21 [JKT.634A] | = | 7.66 |
| O=C1/C(=C/c2ccoc2)Oc2c(Br)cc(Br)cc21 [JKT.638A] | < | 5.30 |
| O=C1/C(=C/c2ccc(O)cc2)Oc2c(Br)cc(Br)cc21 [JKT.629A] | < | 5.30 |
| N#Cc1ccc(/C=C2\Oc3c(Br)cc(Br)cc3C2=O)cc1 [JKT.632A] | < | 5.30 |
| COc1cc(/C=C2\Oc3c(Br)cc(Br)cc3C2=O)ccc1O [JKT.630A] | = | 6.68 |
| O=C1/C(=C/c2ccco2)Oc2c(Br)cc(Br)cc21 [JKT.637A] | < | 5.30 |
| O=C1/C(=C/c2ccc(-c3nnn[nH]3)cc2)Oc2c(Br)cc(Br)cc21 [JKT.633A] | < | 5.30 |
| O=C1/C(=C/c2ccc(O)c(C(F)(F)F)c2)Oc2c(Br)cc(Br)cc21 [JKT.635A] | = | 6.27 |
| O=C1/C(=C/c2cccc(O)c2)Oc2c(Br)cc(Br)cc21 [JKT.631A] | < | 5.30 |
| O=C(O)c1ccc(/C=C2\Oc3c(Br)cc(Br)cc3C2=O)cc1 [JKT.636A] | = | 6.27 |

====

- study target: CK2A2 (Homo sapiens, UniProt P19784)
- Construct: purchased Eurofins
- Sequence (P19784 whole entry): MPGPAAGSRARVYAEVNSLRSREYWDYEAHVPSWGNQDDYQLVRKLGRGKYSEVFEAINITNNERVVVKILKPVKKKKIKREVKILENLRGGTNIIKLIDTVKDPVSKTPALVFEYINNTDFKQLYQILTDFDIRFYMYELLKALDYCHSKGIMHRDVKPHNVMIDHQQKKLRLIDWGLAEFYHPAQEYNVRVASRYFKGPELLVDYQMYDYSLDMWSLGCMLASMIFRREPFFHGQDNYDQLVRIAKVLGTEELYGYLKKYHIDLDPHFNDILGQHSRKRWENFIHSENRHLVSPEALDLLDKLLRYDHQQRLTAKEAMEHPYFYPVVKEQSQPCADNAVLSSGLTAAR
- protocol details: Radiometric kinase assay (Eurofins), CK2A2
- Assay type: biochemical
- measurement setup: Table 12; read-out: CK2A2 RAD IC50
pIC50: −log10 of the molar value.
Outcome label depends on pIC50 relative to 7: at/above gives YES, below gives NO.

| molecule | group label |
| --- | --- |
| COc1nc(/C=C2\Oc3c(cc(Br)c(OC)c3Br)C2=O)ccc1O [Compound 1159A] | NO |
| O=C1/C(=C/c2cc(Br)c(O)cn2)Oc2c(Br)cc(Br)cc21 [Compound 1173A] | YES |
| COc1c(Br)cc2c(c1Br)O/C(=C\c1cc(Br)c(O)cn1)C2=O [Compound 1174A] | YES |
| COc1ccc2c(c1Br)O/C(=C\c1cc(Br)c(O)cn1)C2=O [Compound 1190B] | YES |
| O=C(O)c1ccc(/C=C2\Oc3c(Br)cccc3C2=O)cc1 [Compound 1210A] | YES |
| O=C1/C(=C/c2cc(Br)c(O)cn2)Oc2c(Br)cccc21 [Compound 1237A] | YES |
